Target: Integrin alpha-V/beta-6 (Homo sapiens, UniProt P06756+P18564)
Sequence (P06756 31-889 limits assumed): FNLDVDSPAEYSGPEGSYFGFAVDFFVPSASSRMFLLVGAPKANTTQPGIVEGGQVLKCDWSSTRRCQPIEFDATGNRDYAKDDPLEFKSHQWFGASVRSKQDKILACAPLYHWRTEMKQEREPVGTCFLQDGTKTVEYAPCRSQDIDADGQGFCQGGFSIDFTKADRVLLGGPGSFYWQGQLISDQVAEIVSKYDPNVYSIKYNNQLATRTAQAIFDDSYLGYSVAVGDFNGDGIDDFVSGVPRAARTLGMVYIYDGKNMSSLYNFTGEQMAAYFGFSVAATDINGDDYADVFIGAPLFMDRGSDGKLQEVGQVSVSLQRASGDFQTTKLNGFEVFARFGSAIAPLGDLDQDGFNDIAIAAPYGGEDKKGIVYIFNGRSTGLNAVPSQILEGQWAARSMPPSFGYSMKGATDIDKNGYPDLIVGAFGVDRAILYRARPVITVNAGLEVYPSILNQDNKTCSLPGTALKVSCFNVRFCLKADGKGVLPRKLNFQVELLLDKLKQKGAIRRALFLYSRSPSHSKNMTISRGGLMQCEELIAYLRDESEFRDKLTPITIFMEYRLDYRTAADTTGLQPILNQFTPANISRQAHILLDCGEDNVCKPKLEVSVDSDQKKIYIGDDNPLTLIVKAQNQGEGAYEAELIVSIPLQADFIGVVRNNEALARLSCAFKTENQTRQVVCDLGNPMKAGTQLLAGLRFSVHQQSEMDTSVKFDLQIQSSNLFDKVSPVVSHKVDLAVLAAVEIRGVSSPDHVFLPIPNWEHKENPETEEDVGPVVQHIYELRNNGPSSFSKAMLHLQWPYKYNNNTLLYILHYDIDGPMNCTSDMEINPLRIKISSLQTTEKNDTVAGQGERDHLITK
Sequence (P06756 891-1048 limits assumed): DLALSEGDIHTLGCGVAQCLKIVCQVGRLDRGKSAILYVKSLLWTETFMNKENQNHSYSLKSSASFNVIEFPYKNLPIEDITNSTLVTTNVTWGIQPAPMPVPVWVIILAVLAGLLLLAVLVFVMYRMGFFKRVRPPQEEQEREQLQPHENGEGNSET
Sequence (P18564 22-788 limits assumed): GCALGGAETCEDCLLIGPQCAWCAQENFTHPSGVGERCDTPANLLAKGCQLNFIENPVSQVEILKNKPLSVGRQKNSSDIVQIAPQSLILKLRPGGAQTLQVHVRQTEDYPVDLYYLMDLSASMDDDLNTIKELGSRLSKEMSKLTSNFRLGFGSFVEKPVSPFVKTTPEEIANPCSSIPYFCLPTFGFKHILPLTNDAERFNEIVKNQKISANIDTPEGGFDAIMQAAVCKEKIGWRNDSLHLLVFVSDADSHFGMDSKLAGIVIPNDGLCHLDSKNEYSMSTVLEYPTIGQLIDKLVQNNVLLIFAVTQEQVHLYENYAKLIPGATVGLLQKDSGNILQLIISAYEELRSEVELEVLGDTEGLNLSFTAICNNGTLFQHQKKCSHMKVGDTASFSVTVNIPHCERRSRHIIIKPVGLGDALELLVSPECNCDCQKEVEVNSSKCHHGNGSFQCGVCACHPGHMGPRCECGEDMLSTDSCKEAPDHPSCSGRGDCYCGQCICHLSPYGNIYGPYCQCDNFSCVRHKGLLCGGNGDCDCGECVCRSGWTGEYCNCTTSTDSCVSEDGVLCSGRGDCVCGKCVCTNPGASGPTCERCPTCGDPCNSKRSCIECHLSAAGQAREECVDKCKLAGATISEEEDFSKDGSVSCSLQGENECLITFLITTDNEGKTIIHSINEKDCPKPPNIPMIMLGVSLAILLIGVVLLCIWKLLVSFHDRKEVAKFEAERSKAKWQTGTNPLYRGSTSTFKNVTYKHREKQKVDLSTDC
Assay: Inhibition of recombinant human integrin alphaV (31 to 992 residues) beta6 (22 to 707 residues) expressed in CHO cells preincubated for 15 mins followed by Cy3B-RGD probe addition and measured after 2 hrs by fluorescence polarization assay
property_label: IC50 (nM)

> print(dat)
                                   compound  unit.abbrev  measured.number
1  O=C(O)CC(Nc1ccc(OCCc2ccc3c(n2)NCCC3)cn1)c1cccc(F)c1 (racemic)           nM             79.4
2  O=C(O)C[C@H](Nc1ccc(OCCc2ccc3c(n2)NCCC3)nn1)c1cccc(Cl)c1           nM             6.31
3  O=C(O)CC(Nc1cnc(OCCc2ccc3c(n2)NCCC3)cn1)c1cccc(Cl)c1 (racemic)           nM            12600
4  O=C(O)CC(Nc1ccc(OCCc2ccc3c(n2)NCCC3)cn1)c1ccc(Cl)cc1 (racemic)           nM             39.8
5  O=C(O)CC(Nc1ccc(OCCc2ccc3c(n2)NCCC3)cn1)c1cccc(CN2CCOCC2)c1 (racemic)           nM             63.1

[P] O=C(O)CC(Nc1ncc(OCCc2ccc3c(n2)NCCC3)cn1)c1cccc(Cl)c1 (racemic)
[Q] O=C(O)C[C@@H](Nc1ccc(OCCc2ccc3c(n2)NCCC3)nn1)c1cccc(Cl)c1
[R] O=C(O)CC(Nc1ccc(OCCc2ccc3c(n2)NCCC3)cn1)c1cccc(Cl)c1 (racemic)
[S] O=C(O)CC(Nc1ccc(OCCc2ccc3c(n2)NCCC3)nc1)c1cccc(Cl)c1 (racemic)
Q: Arrange the 4 compounds from largest to smallest IC50. Returns: the labels listed in the requested order.
A: Q, S, P, R
(Q: 794 nM, S: 398 nM, P: 158 nM, R: 50.1 nM)

Data credit: ChEMBL document CHEMBL4354806
